# assay.protocol: NCI Yeast Anticancer Drug Screen. Data for the bub3 strain (AID 167)
# condition: S. cerevisiae bub3 mutant strain, at 5.0 µM (retest, dose inferred, filed as 0.5), stronger effect = higher value
The panel holds about 79,000 compounds, 15% with a hit somewhere; the sample as a whole holds those more often.
measured.metric: growth inhibition (%)
Express it in %; write the number only.

QUERY: Entry under review: `CC1(C)CC(=O)C(/C=N/c2nc(-c3ccccc3)cs2)=C(O)C1` . Reported growth inhibition?
RESULT: -19

QUERY: Entry under review: `CCN(CC)Cc1cc(Nc2c3ccccc3nc3c2[nH]c2ccccc23)cc(CN(CC)CC)c1O` . Reported growth inhibition?
RESULT: 16

QUERY: Entry under review: `COc1ccc(C(=O)c2ccccc2C(=O)c2ccccc2OC)cc1` . Reported growth inhibition?
RESULT: 16

QUERY: Entry under review: `Cc1cc2c3ccccc3c3ccccc3c2nn1` . Reported growth inhibition?
RESULT: -64
